The following compounds have recorded MIC on Fusarium oxysporum CMI 113138.
Value expressed in µg/mL; do not type the unit.

Query block: For CCC(C)(C)c1ccc(CC(C)CN2CC[Si](C)(C)CC2)cc1 (stereo not shown) [NDS100444] , what is its reported MIC?
Result block: 64

Query block: Proceed to CC(Cc1ccc(C(C)(C)C)cc1)CN1CCCCC1 (stereo not shown) [Fenpropidin, reference compound]
Result block: 256

Query block: Proceed to CC(Cc1ccc(C(C)(C)C)cc1)CN1CC[Si](C)(C)CC1 (racemic) [NDS100414]
Result block: 64

---

The following compounds have recorded MIC on Candida albicans ATCC 24433.
Value expressed in µg/mL; do not type the unit.

Observe how each entry below is paired with its result.
Compound: CC(Cc1ccc([Si](C)(C)C)cc1)CN1CC[Si](C)(C)CC1 (stereo not shown)
Unit Abbreviation: µg/mL
Numeric Readout: 2
//
Compound: CC(Cc1ccc(C(C)(C)C)cc1)CN1C[C@@H](C)O[C@@H](C)C1 (stereo partly shown) [Fenpropimorph, reference compound]
Unit Abbreviation: µg/mL
Numeric Readout: 0.125
//
Compound: CCC(C)(C)c1ccc(CC(C)CN2CC[Si](C)(C)CC2)cc1 (stereo not shown)
Unit Abbreviation: µg/mL
Numeric Readout: 4
//
Compound: CC(Cc1ccc(C(C)(C)C)cc1)CN1CCCCC1 (stereo not shown) [Fenpropidin, reference compound]
Unit Abbreviation: µg/mL
Numeric Readout: 0.5

Here's the next entry for you.
Query block: For CC(Cc1ccc(C(C)(C)C)cc1)CN1CC[Si](C)(C)CC1 (racemic) , what is its reported MIC?
Result block: 4
